Cited source: patent US5614510A

- PROTOCOL_DESCRIPTION: bioavailability of IP3 in pigs: blood concentration of IP3 and AUC after intravenous, intraduodenal or oral administration
- Type: in vivo
- SETTINGS: pig, in vivo, iv
Where a name gives a salt, the structure may show the parent alone.
QUANTITY: concentration at 4 h
State the result as a value with its unit after it.

Req: // query concentration at 4 h value for entry O=P(O)(O)O[C@@H]1[C@H](OP(=O)(O)O)[C@H](O)[C@@H](O)[C@H](O)[C@H]1OP(=O)(O)O [sodium salt]
Resp: 3.2 µM

====

- PROTOCOL_DESCRIPTION: bioavailability of IP3 in pigs: blood concentration of IP3 and AUC after intravenous, intraduodenal or oral administration
- Assay type: in vivo
- SETTINGS: pig, in vivo, iv
- Method: The blood samples were assayed for the content of IP3 and these measurements were used for the calculation of the reference data as 100% of the substance is introduced into the blood stream after an intravenous injection. Another five pigs were given the N(3-dodecanoyloxy)propyltrimethyl ammonium salt of IP3 as an intraduodenal dosing. […] Blood samples were collected at the time intervals mentioned above and the concentration of IP3 was determined in each sample. […]
Structures can show the parent of a compound that is named as a salt.
QUANTITY: concentration at 8 h (nM)
Could you give me the number in nM? Just the number is fine.

Req: // query concentration at 8 h value for entry O=P(O)(O)O[C@@H]1[C@H](OP(=O)(O)O)[C@H](O)[C@@H](O)[C@H](O)[C@H]1OP(=O)(O)O [sodium salt]
Resp: 400
